target: CDK2/Cyclin E1 (Homo sapiens); experiment: CDK2/Cyclin E1 TR-FRET biochemical assay, 1 mM ATP; conditions: 0.15 μM Rb (Ser780)-biotin substrate, 90 min reaction, Table 2
Property Label: IC50 (nM)

| Compound | Unit String | Reported |
| --- | --- | --- |
| CC(C)(C)c1nnc([C@@H]2CC[C@H](c3cc(Nc4ccc5c(c4F)CNS5(=O)=O)n[nH]3)C2)o1 (relative stereo) | nM | 314 |
| CCOC(=O)c1nc(C2CCC(c3cc(Nc4ccc5c(c4F)CNS5(=O)=O)n[nH]3)C2)oc1C(C)C (centres unmarked) | nM | 264 |
| CC(C)(C)c1nnc([C@@H]2CC[C@H](c3cc(Nc4ccc5c(c4F)CS(=O)(=O)N5)n[nH]3)C2)o1 (relative stereo) | nM | 74 |
| CC(C)c1cnc(C2CCC(c3cc(Nc4ccc5c(c4)CN=S5(C)=O)n[nH]3)C2)o1 (centres unmarked) | nM | 15 |
| CC(C)(C)c1cc(C2CCC(c3cc(Nc4ccc5c(c4F)CNS5(=O)=O)n[nH]3)C2)ncn1 (centres unmarked) | nM | 2120 |
| CC(C)(C)c1cnc(C2CCC(c3cc(Nc4ccc(S(N)(=O)=O)cc4F)n[nH]3)C2)o1 (single isomer, unassigned) [Example 6a] | nM | 3 |

P = CC(C)(C)c1ccc(C2CCC(c3cc(Nc4ccc5c(c4F)CS(=O)(=O)N5)n[nH]3)C2)nc1 (centres unmarked)
Q = CC(C)c1cnc(C2CCC(c3cc(Nc4cc5c(cc4F)S(=O)(=O)NC5)n[nH]3)C2)o1 (centres unmarked)
R = CC(C)(C)c1nnc([C@H]2CC[C@H](c3cc(Nc4ccc5c(c4F)CS(=O)(=O)N5)n[nH]3)C2)o1 (relative stereo)
S = CC(C)c1cnc(C2CCC(c3cc(Nc4ccc5c(c4F)CNS5(=O)=O)n[nH]3)C2)o1 (single isomer, unassigned) [Example 109d]
Enquiry: Arrange these compounds by their IC50, starting with the largest number. I would appreciate it if you listed the labels in the requested order.
Return: P, R, S, Q
(P: 2020 nM, R: 851 nM, S: 158 nM, Q: 42 nM)
